For each of the molecules below, state its z-score.
# assay.procedure: galactose survival enhancers in mitochondrial complex I cybrids – cell-based, galactose medium, ATP luminescence, primary screen (AID 1645843);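 note: positive z means more ATP and so rescue of galactose-driven cybrid death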
# condition.set: complex I mutant cybrid cells, 72 h, stronger effect = higher value
Give the value as a plain number.

Enquiry: Entry Cc1noc(C)c1CC(=O)N1CCc2c(c(C(=O)N3CCOCC3)nn2CCCc2ccccc2)C1 has what z-score?
Return: -0.895

Enquiry: Check Cc1nc(C)c(-c2ccnc(N)n2)s1 too.
Return: -0.255

Enquiry: Check CC(C)[C@@H]1NC(=O)[C@@H]2C[C@H](NC(=O)c3cccc(Cl)c3)CN2C1=O too.
Return: -0.675

Enquiry: Check CC(C)CNC(=O)[C@H]1CNC[C@@H](CN2CCOCC2)C1 too.
Return: -0.045

Enquiry: Check Cc1cc(C)nc(-c2cnn(CC(=O)Nc3cnn(C)n3)c2)n1 too.
Return: -0.525

Enquiry: Check OCCCCCNc1nccc(-c2cnn(-c3ccc(F)cc3)c2)n1 too.
Return: -0.895

Enquiry: Check O=C1[C@@H]2C[C@@H](O)CN2C(=O)[C@H]2CN(Cc3ccc(CN4CCCCC4)s3)CCN12 too.
Return: 0.32

Enquiry: Check O=C(c1cccc(=O)[nH]1)N(Cc1cccnc1)Cc1ccc2c(c1)OCO2 too.
Return: -0.17

Enquiry: Check CC(C)N1CC(OCc2ccc(F)cc2)CN(C(=O)c2ccc(C#CC(C)(C)O)o2)CC1=O (stereo not given) too.
Return: 0.06

Enquiry: Check O=[N+]([O-])c1ccc(-c2ccn[nH]2)cc1 too.
Return: 0.59

====

For each of the compounds below, state its z-score.
# assay.procedure: galactose survival enhancers in mitochondrial complex I cybrids – cell-based, galactose medium, ATP luminescence, primary screen (AID 1645843);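 note: positive z means more ATP and so rescue of galactose-driven cybrid death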
# condition.set: complex I mutant cybrid cells, 72 h, stronger effect = higher value
Where a SMILES comes first, the peptide text is derived from it. [ ]: non-standard residue; d: D form. pGlu = O=C1CC[CH](C(=O)O)N1; Thz = O=C(O)[CH]1CSCN1
Give the value as a plain number.

Enquiry: Entry Cc1cc(-c2cc3c(n(C)c2=O)CCN(Cc2c(C)nc4sccn24)C3)ccc1F has what z-score?
Return: 0.27

Enquiry: Check CCn1ncc(NC(=O)Cn2nc(C)c(-c3ccc(-n4cccn4)cc3)c2C)n1 too.
Return: -0.54

Enquiry: Check CC1(C)C[C@H]1C(=O)N/C(=C\CCCCSC[C@@H](N)C(=O)O)C(=O)O too.
Return: 0.565

Enquiry: Check N.N.N.N.N.N.N.N.N.N.N.N.N.N.O.O.[Cl-].[Cl-].[Cl-].[Cl-].[Cl-].[Cl-].[Ru+4].[Ru+5].[Ru+5] too.
Return: -0.735

Enquiry: Check CC1=C(CCN2CCC3(CC2)C(=O)N(C(C)C)C(=O)N3C)C(C)(C)CCC1 too.
Return: 1.89

Enquiry: Check Nc1[nH]c(=O)[nH]c(=O)c1N too.
Return: 0.84

Enquiry: Check CCC(CO)n1cnc2sc3c(c2c1=O)CCCCC3 (stereo not given) too.
Return: 1.99

Enquiry: Check Cc1ccc(-c2noc([C@@]34CC[C@@](C)(C(=O)O3)C4(C)C)n2)cc1Cl too.
Return: -0.54

Enquiry: Check Cc1cc(C(F)(F)F)nc(CNC(=O)c2ccc3nccnc3c2)n1 too.
Return: -0.69

Enquiry: Check CC(C)Cn1nc(C(=O)N2CCCC2)c2c1CCC(NCCc1cccs1)C2 (stereo not given) too.
Return: 0.555

Enquiry: Check CCOC(=O)c1c(C)nn(-c2ccc(N)cc2)c1C too.
Return: -0.7

Enquiry: Check CCCC(C)c1nc2c(cnn2CC(C)C)[nH]1 (stereo not given) too.
Return: 1.06

Enquiry: Check CSc1n[nH]c(-c2ccc(Cl)cc2)n1 too.
Return: 0.11

Enquiry: Check COC1C=CO[C@@]2(C)Oc3c(C)c(O)c4c(O)c(c5c(c4c3C2=O)NC2(CCN(CC(C)C)CC2)N=5)=NC(=O)C(C)=CC=CC(C)C(O)C(C)C(O)C(C)C(OC(C)=O)C1C (stereo not given in full) too.
Return: 1.02

Enquiry: Check O=C1CCCc2occ(C(=O)N3CCc4[nH]nc(Cc5ccccc5)c4C3)c21 too.
Return: -0.515

Enquiry: Check O=C1N[C@H](CO)C(=O)N2CCN(C(=O)c3ccc(F)cc3)C[C@H]12 too.
Return: -0.325

Enquiry: Check COc1ccc(C(C)=O)c(OC2(C(=O)O)CCSCC2)c1 too.
Return: -0.58

Enquiry: Check O=C1CCC(C(=O)N2CSCC2C(=O)O)N1 (stereo not given) ([pGlu]-[Thz]-OH; configuration not given here) too.
Return: 0.45

Enquiry: Check Cn1ccnc1CN1C[C@@H](CN2CCOCC2)C[C@@H](C(=O)N2CCCC2)C1 too.
Return: -0.64

Enquiry: Check C[C@]12CC(O)C3C(CCC4=CC(=O)CC[C@@]43C)C1CCC2C(=O)CO (stereo not given in full) too.
Return: 0.21

====

For each of the compounds below, state its viability.
# assay.procedure: drug combination growth inhibition, ovarian cancer – cell-based, oncology-focused library, rucaparib conditional, profiling panel (AID 1508598)
# condition.set: patient-derived ovarian cancer cells, CellTiter-Glo viability, 144 h; at 0.313 µM; OCI-P5x cells; without rucaparib; stronger effect = lower value
Where a SMILES comes first, the peptide text is derived from it. The star is where a group is joined. Cbz = O=C(OCc1ccccc1)*; CH2F = FC*
Kindly provide the numeric value in % only, without the unit symbol.

Enquiry: Entry CO[C@H]1C[C@H]2CC[C@@H](C)[C@@](O)(O2)C(=O)C(=O)N2CCCC[C@H]2C(=O)O[C@H]([C@H](C)C[C@@H]2CC[C@H](OC(=O)C(C)(CO)CO)[C@H](OC)C2)CC(=O)[C@H](C)/C=C(\C)[C@@H](O)[C@@H](OC)C(=O)[C@H](C)C[C@H](C)/C=C/C=C/C=C/1C has what viability?
Return: 57.7

Enquiry: Check Nc1nonc1C(=Nc1ccc(F)c(Cl)c1)NO too.
Return: 102

Enquiry: Check CCNC(=O)c1noc(-c2cc(Cl)c(O)cc2O)c1-c1ccc(OC)cc1 too.
Return: 7.17

Enquiry: Check C[C@]12CCC(=O)C=C1CC[C@@H]1[C@H]2[C@H](O)C[C@@]2(C)[C@H]1CC[C@@]2(O)C(=O)CO too.
Return: 114

Enquiry: Check COC(=O)C[C@H](NC(=O)[C@H](C)NC(=O)[C@@H](NC(=O)OCc1ccccc1)C(C)C)C(=O)CF (Cbz-Val-Ala-Asp(OMe)-CH2F) too.
Return: 107

Enquiry: Check Cc1cc(C)c(-c2csc(NC(=O)c3ccccc3)n2)c(C)c1 too.
Return: 101

Enquiry: Check CC(=O)O[C@@]1(C(C)=O)CC[C@H]2[C@@H]3C=C(C)C4=CC(=O)CC[C@]4(C)[C@@H]3CC[C@@]21C too.
Return: 89.7

====

# assay.procedure: blockers of cytochrome c efflux from mitochondria – biochemical, purified mitochondria (AID 1603);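 note: mouse liver mitochondria challenged with calcium chloride; signal normalized to the plate average as 100%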
# condition.set: stronger effect = lower value
For each of the molecules below, state its cytochrome c release ratio.
Give the value as a plain number.

Enquiry: Entry Cc1cc(Nc2ccccc2C(=O)O)ccc1Cl has what cytochrome c release ratio?
Return: 4.31

Enquiry: Check CCCCC(=O)OC1(C(=O)CO)C(C)CC2C3CCC4=CC(=O)C=CC4(C)[C@@]3(F)[C@@H](O)CC21C (stereo not given in full) too.
Return: 1.65

Enquiry: Check CO/N=C(\C(=O)NC1C(=O)N2C(C(=O)O)=C(CSc3nc(=O)c(O)nn3C)CS[C@H]12)c1csc(N)n1 (stereo not given in full) too.
Return: 1.14

Enquiry: Check CCC(=O)O[C@@H](O[P@](=O)(CCCCc1ccccc1)CC(=O)N1C[C@H](C2CCCCC2)C[C@H]1C(=O)O)C(C)C too.
Return: 0.8

Enquiry: Check C=C1C(=O)OC2C1CCC1(C)CCC=C(C)C21 (stereo not given) too.
Return: 0.81

Enquiry: Check OCc1cc2c(cn1)[nH]c1ccccc12 too.
Return: 0.58

Enquiry: Check CC12CC[C@@H]3c4ccc(O)cc4CCC3[C@@H]1CCC2=O (stereo not given in full) too.
Return: 0.91

Enquiry: Check CC(N)C(O)c1cccc(O)c1 (stereo not given) too.
Return: 0.89

Enquiry: Check CCC(=O)c1ccc2c(c1)N(CC(C)N(C)C)c1ccccc1S2 (stereo not given) too.
Return: 1.13

Enquiry: Check CCN(CCCc1ccccc1)CCCc1ccccc1 (tested in a mixture with another compound) too.
Return: 0.86

====

# assay.procedure: MELAS cybrid and Rieske KO viability enhancers – cell-based, MELAS cybrids, Rieske KO mouse fibroblasts, CellTiter-Glo, primary screen (AID 1508586);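 note: z relative to plate mean and SD of compound and empty wells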
# condition.set: MELAS cybrid survival, low glucose, CellTiter-Glo 48 h; stronger effect = higher value
Activity calls are given as the source filed them.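 The calls were made as follows: active = mean z-score across replicates of 1.96 or higher in either the MELAS or the Rieske mutant cell line; inactive = the rest.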
For each of the molecules below, state its z-score.

Enquiry: Entry CS(=O)(=O)c1ccc(C(=N)N)cc1 has what z-score?
Return: 0.807 (inactive)

Enquiry: Check CCOc1cc(C(CS(C)(=O)=O)N2C(=O)c3cccc(NC(C)=O)c3C2=O)ccc1OC (stereo unspecified) too.
Return: -0.371 (inactive)

Enquiry: Check CN1CCN(c2ncnc3sccc23)CC1=O too.
Return: -0.0885 (inactive)

Enquiry: Check CCOc1ccc(C=C2NCCc3cc(OCC)c(OCC)cc32)cc1OCC too.
Return: -1.41 (inactive)

Enquiry: Check CC(C)[C@@H]1NC(=O)[C@@H]2C[C@H](NC(=O)c3cc(C(C)(C)C)nn3C)CN2C1=O too.
Return: 0.0639 (inactive)

Enquiry: Check Cc1onc(-c2c(F)cccc2Cl)c1C(=O)N[C@@H]1C(=O)N2C(C(=O)O)C(C)(C)S[C@H]12 (stereo partly specified) too.
Return: 0.325 (inactive)
